Listed below: pKi values for each entry.
Target: S5.42A 5-HT1A receptor (Homo sapiens, UniProt P08908, S199A)
Sequence (P08908 1-422 S199A): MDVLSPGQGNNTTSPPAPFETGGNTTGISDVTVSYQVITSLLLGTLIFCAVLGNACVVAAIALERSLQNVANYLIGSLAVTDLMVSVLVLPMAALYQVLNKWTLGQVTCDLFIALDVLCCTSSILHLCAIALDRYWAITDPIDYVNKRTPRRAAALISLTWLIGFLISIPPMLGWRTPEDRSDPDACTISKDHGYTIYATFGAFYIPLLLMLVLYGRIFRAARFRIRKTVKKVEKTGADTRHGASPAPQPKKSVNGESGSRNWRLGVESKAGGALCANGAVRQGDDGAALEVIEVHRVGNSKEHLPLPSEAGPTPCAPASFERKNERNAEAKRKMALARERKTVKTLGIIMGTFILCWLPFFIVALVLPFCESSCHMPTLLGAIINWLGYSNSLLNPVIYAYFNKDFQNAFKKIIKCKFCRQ
Test: Radioligand binding, S5.42A 5-HT1A
Please express pKi as -log10 of the molar concentration.

compound="CN(C)[C@H]1CCc2c(cccc2-c2cccc3ccccc23)C1 [(S)-NAP]" result_value=7.20

# context switch: different compound, same pKi
Item Fc1ccccc1-c1cccc2c1CC[C@H](N1CCCC1)C2 [(S)-PFPT] with S5.42A 5-HT1A receptor (Homo sapiens, UniProt P08908, S199A) - pKi?
8.83
